system: normal ECG in rats; assay: Effect on a normal electrocardiogram in rats; format: in vivo, rat; settings: 5 mg/kg iv, 15 min; mean ± SD; in ms (unit assumed)
recorded-endpoint: PQ interval
One number for each entry.

Look over these answered cases.
COc1ccccc1N1CCN(Cc2cccc(COc3ccccc3C(N)=O)c2)CC1.Cl [JJGW11] :: 47.6
COc1ccccc1N1CCN(CCCCOc2ccccc2C(N)=O)CC1.Cl [JJGW07] :: 40.7
Cl.NC(=O)c1ccccc1OCCCCCCN1CCN(c2cccc(Cl)c2)CC1 [JJGW03] :: 40.0

// input: 3 compounds below; output: PQ interval for each
1. Cl.NC(=O)c1ccccc1OCCCCN1CCN(c2cccc(Cl)c2)CC1 [JJGW01]
2. Cl.NC(=O)c1ccccc1OCCCCCN1CCN(c2cccc(Cl)c2)CC1 [JJGW02]
3. COc1ccccc1N1CCN(Cc2ccc(COc3ccccc3C(N)=O)cc2)CC1.Cl [JJGW12]

1: 41.0; 2: 44.8; 3: 45.5

* * *

For each of the molecules below, state its SBP—systolic blood pressure.
System: normotensive rats
Test: Influence on blood pressure in the normotensive rats
Format: in vivo, rat
Details: 2.5 mg/kg iv, 5 min; mean ± SD
Description: The experiment was performed according to the method described earlier. Normotensive Wistar rats were anesthetized with thiopental (75 mg/kg ip). The right carotid artery was cannulated with a polyethylene tube filled with heparin solution, using a Datamax apparatus (Columbus Instruments, Columbus, OH, USA). After 15 min of the stabilization period, the studied compounds were administered iv, and their effect on systolic and diastolic blood pressure was evaluated (Figure 4A).
Answers are plain numbers, in mmHg.

Cl.NC(=O)c1ccccc1OCCCCCCN1CCN(c2cccc(Cl)c2)CC1 :: 112.5

Let's switch to this molecule now.
Measured SBP—systolic blood pressure of COc1ccccc1N1CCN(Cc2ccc(COc3ccccc3C(N)=O)cc2)CC1.Cl : 120.7

* * *

test system: normal ECG in rats; assay: Effect on a normal electrocardiogram in rats; type: in vivo, rat; details: 5 mg/kg iv, 0 min (prior to administration); mean ± SD; in ms (unit assumed)
For each of the compounds below, state its PQ interval.
Numbers only.

// input: 4 compounds below; output: PQ interval for each
1. Cl.NC(=O)c1ccccc1OCCCCCCN1CCN(c2cccc(Cl)c2)CC1 [JJGW03]
2. Cl.NC(=O)c1ccccc1OCCCCN1CCN(c2cccc(Cl)c2)CC1 [JJGW01]
3. COc1ccccc1N1CCN(Cc2cccc(COc3ccccc3C(N)=O)c2)CC1.Cl [JJGW11]
4. COc1ccccc1N1CCN(Cc2ccc(COc3ccccc3C(N)=O)cc2)CC1.Cl [JJGW12]

1. 41.6
2. 42.3
3. 45.8
4. 44.1

// input: 2 compounds below; output: PQ interval for each
1. Cl.NC(=O)c1ccccc1OCCCCCN1CCN(c2cccc(Cl)c2)CC1 [JJGW02]
2. COc1ccccc1N1CCN(CCCCOc2ccccc2C(N)=O)CC1.Cl [JJGW07]

1: 42.6; 2: 40.7

* * *

tested on: normal ECG in rats; assay: Effect on a normal electrocardiogram in rats; assay type: in vivo, rat; conditions: 5 mg/kg iv, 15 min; mean ± SD; in ms (unit assumed)
recorded-endpoint: QRS complex
Give bare numbers.

Look over these answered cases.
COc1ccccc1N1CCN(CCCCOc2ccccc2C(N)=O)CC1.Cl [JJGW07] :: 48.7
Cl.NC(=O)c1ccccc1OCCCCCCN1CCN(c2cccc(Cl)c2)CC1 [JJGW03] :: 40.4
COc1ccccc1N1CCN(Cc2ccc(COc3ccccc3C(N)=O)cc2)CC1.Cl [JJGW12] :: 45.2

// input: 2 compounds below; output: QRS complex for each
1. Cl.NC(=O)c1ccccc1OCCCCN1CCN(c2cccc(Cl)c2)CC1 [JJGW01]
2. COc1ccccc1N1CCN(Cc2cccc(COc3ccccc3C(N)=O)c2)CC1.Cl [JJGW11]

50.3
41.7

Measured QRS complex of Cl.NC(=O)c1ccccc1OCCCCCN1CCN(c2cccc(Cl)c2)CC1 [JJGW02] : 35.2
